The measurements presented in this section are drawn from the supplement of paper PMC13380429.

Tested on: HepG2
Assay: relative viability EC50 (midpoint between 100% and the lowest measured viability); higher = less toxic
Settings: 72 h
property.measured: relative viability EC50

Solved cases (3 shown):
CCNC(=O)NS(=O)(=O)c1sc(CC(C)C)cc1-c1ccc(Cn2c(-c3ccccc3)nc(OC)c2C=O)cc1 = > 10 µM
CN(C)CC[C@@]1(c2ccc(Cl)cc2)Cc2ccccc2C(=O)O1 (racemic) [AC-7954-(+/-)] = > 10 µM
O=C(O)CCc1c[nH]c2ccccc12 = > 10 µM

Exam item: Enter recorded relative viability EC50 with HepG2 for c1ccc(Oc2cccnc2)cc1 here.
Marked response: > 10 µM

Exam item: Enter recorded relative viability EC50 with HepG2 for Cc1ccc(NC(=O)c2ccc(CN3CCN(C)CC3)cc2)cc1Nc1nc(-c2cccnc2)cs1 here.
Marked response: 3.29 µM

Exam item: Enter recorded relative viability EC50 with HepG2 for CCC(C)(CN(C)C)OC(=O)c1ccccc1 (stereo not drawn) here.
Marked response: > 10 µM

Exam item: Enter recorded relative viability EC50 with HepG2 for O=[N+]([O-])c1cn2c(n1)OC[C@@H](OCc1ccc(OC(F)(F)F)cc1)C2 here.
Marked response: > 10 µM

Exam item: Enter recorded relative viability EC50 with HepG2 for O=C(C[C@H]1CC(c2ccc(F)cc2F)=NO1)N1CCOCC1 (racemic) [CPSI-1306-(+/-)] here.
Marked response: > 10 µM
